Source of measurements: ChEMBL document CHEMBL1147749

- System Under Test: Histone deacetylase
- Assay Overview: Inhibition of HDAC in human leukemic CEM cells
- Type: cell-based
- Experimental Setup: ccrf-cem
Measured Quantity: IC50

{"Compound": "O=C(CCCCCSc1ccc(Cl)cc1)NO", "Reported Measurement": "> 25 µM"}

Query: Which IC50 is reported for this compound? O=C(/C=C/C=C/C[S+]([O-])c1ccccc1)NO (stereo not drawn)
Reply: > 25 µM

Query: Please look up its IC50: O=C(/C=C/C=C/CSc1ccccc1)NO
Reply: > 25 µM
